assay explanation: Pharmacokinetics in mice
Assay type: in vivo
run conditions: ICR, mouse, plasma, iv, 50 mg/kg

compound: Oc1ccc(-c2nc(-c3ccc(Oc4ccc(C(F)(F)F)cc4)cc3)no2)cc1 [Compound 3]
readout unit: ng·h/mL
AUC(0-inf): 44200
--
compound: Oc1ccc(-c2nc(-c3ccc(Oc4ccccc4)cc3)no2)cc1 [Compound 2]
readout unit: ng·h/mL
AUC(0-inf): 23000
--
compound: Nc1ccc(-c2nc(-c3ccc(Oc4ccc(C(F)(F)F)cc4)cc3)no2)cc1 [Compound 4]
readout unit: ng·h/mL
AUC(0-inf): 153000

###

Entries with their measured MIC, system S. epidermis ATCC 35547:

compound: Oc1ccc(-c2nc(-c3ccc(Oc4ccc(C(F)(F)F)cc4)cc3)no2)cc1 [Compound 3]
MIC: 2 µg/mL
//
compound: CN[C@H](CC(C)C)C(=O)N[C@H]1C(=O)N[C@@H](CC(N)=O)C(=O)N[C@H]2C(=O)N[C@H]3C(=O)N[C@H](C(=O)N[C@H](C(=O)O)c4cc(O)cc(O)c4-c4cc3ccc4O)[C@H](O)c3ccc(c(Cl)c3)Oc3cc2cc(c3O[C@@H]2O[C@H](CO)[C@@H](O)[C@H](O)[C@H]2O[C@H]2C[C@](C)(N)[C@H](O)[C@H](C)O2)Oc2ccc(cc2Cl)[C@H]1O [vancomycin, reference compound]
MIC: 16 µg/mL
//
compound: Nc1ccc(-c2nc(-c3ccc(Oc4ccc(C(F)(F)F)cc4)cc3)no2)cc1 [Compound 4]
MIC: 2 µg/mL
//
compound: CC(=O)NC[C@H]1CN(c2ccc(N3CCOCC3)c(F)c2)C(=O)O1 [linezolid, reference compound]
MIC: 1 µg/mL
//
compound: Oc1ccc(-c2nc(-c3ccc(Oc4ccccc4)cc3)no2)cc1 [Compound 2]
MIC: 2 µg/mL

###

System: E. faecalis 201 (Van S)
Here the recorded MIC is given for each entry.

compound: CC(=O)NC[C@H]1CN(c2ccc(N3CCOCC3)c(F)c2)C(=O)O1 [linezolid, reference compound]
qual: =
MIC / µg/mL: 2

compound: Oc1ccc(-c2nc(-c3ccc(Oc4ccc(C(F)(F)F)cc4)cc3)no2)cc1 [Compound 3]
qual: =
MIC / µg/mL: 2

compound: Oc1ccc(-c2nc(-c3ccc(Oc4ccccc4)cc3)no2)cc1 [Compound 2]
qual: =
MIC / µg/mL: 2

compound: Nc1ccc(-c2nc(-c3ccc(Oc4ccc(C(F)(F)F)cc4)cc3)no2)cc1 [Compound 4]
qual: >
MIC / µg/mL: 32

compound: CN[C@H](CC(C)C)C(=O)N[C@H]1C(=O)N[C@@H](CC(N)=O)C(=O)N[C@H]2C(=O)N[C@H]3C(=O)N[C@H](C(=O)N[C@H](C(=O)O)c4cc(O)cc(O)c4-c4cc3ccc4O)[C@H](O)c3ccc(c(Cl)c3)Oc3cc2cc(c3O[C@@H]2O[C@H](CO)[C@@H](O)[C@H](O)[C@H]2O[C@H]2C[C@](C)(N)[C@H](O)[C@H](C)O2)Oc2ccc(cc2Cl)[C@H]1O [vancomycin, reference compound]
qual: =
MIC / µg/mL: 1

###

Here the recorded IC50 is given for each entry.
target or test system: purified recombinant PBP2a (Staphylococcus aureus, UniProt P07944)
Sequence (P07944 whole entry): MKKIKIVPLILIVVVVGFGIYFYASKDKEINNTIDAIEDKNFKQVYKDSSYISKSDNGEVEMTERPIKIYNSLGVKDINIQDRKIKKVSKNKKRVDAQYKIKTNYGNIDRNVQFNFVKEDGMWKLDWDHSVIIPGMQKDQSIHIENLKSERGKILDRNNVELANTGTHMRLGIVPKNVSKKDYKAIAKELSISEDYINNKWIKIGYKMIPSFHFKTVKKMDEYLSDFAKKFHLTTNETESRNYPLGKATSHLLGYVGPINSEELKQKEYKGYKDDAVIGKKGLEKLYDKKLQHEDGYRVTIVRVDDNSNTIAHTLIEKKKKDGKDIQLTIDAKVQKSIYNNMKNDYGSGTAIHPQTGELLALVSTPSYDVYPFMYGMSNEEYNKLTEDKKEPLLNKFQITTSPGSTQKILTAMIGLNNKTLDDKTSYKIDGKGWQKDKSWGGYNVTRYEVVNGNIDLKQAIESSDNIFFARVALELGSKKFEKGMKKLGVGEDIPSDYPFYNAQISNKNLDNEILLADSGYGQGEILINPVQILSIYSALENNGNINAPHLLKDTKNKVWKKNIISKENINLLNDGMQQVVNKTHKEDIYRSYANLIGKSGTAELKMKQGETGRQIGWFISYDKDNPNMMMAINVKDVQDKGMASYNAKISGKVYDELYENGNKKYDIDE
assay explanation: Continuous spectrophotometric PBP2a inhibition assay with nitrocefin
readout name: IC50 (µM)

smiles str: Oc1ccc(-c2nc(-c3ccc(Oc4ccccc4)cc3)no2)cc1
readout name: IC50
numeric value: 12.1

smiles str: Oc1ccc(-c2nc(-c3ccc(Oc4ccc(C(F)(F)F)cc4)cc3)no2)cc1
readout name: IC50
numeric value: 20.1

###

assay explanation: Hemolysis assay
Format: cell-based, horse
run conditions: horse, washed red blood cells from horse whole blood

smiles str: Oc1ccc(-c2nc(-c3ccc(Oc4ccc(C(F)(F)F)cc4)cc3)no2)cc1
hemolysis at 1 h, 64 μg/mL [%]: 3

smiles str: Oc1ccc(-c2nc(-c3ccc(Oc4ccccc4)cc3)no2)cc1
hemolysis at 1 h, 64 μg/mL [%]: 3

###

assay explanation: Pharmacokinetics in mice
Assay type: in vivo
run conditions: female, ICR, mouse, plasma, po, 50 mg/kg
Here the recorded Cmax is given for each entry.
readout name: Cmax (ng/mL)

smiles str: Oc1ccc(-c2nc(-c3ccc(Oc4ccc(C(F)(F)F)cc4)cc3)no2)cc1
readout name: Cmax
numeric value: 2500
//
smiles str: Nc1ccc(-c2nc(-c3ccc(Oc4ccc(C(F)(F)F)cc4)cc3)no2)cc1
readout name: Cmax
numeric value: 10000

###

Here the recorded AUC(0-inf) is given for each entry.
assay explanation: Pharmacokinetics in mice
Format: in vivo
run conditions: female, ICR, mouse, plasma, po, 50 mg/kg
readout name: AUC(0-inf)

smiles str: Nc1ccc(-c2nc(-c3ccc(Oc4ccc(C(F)(F)F)cc4)cc3)no2)cc1
result: 154000 ng·h/mL
//
smiles str: Oc1ccc(-c2nc(-c3ccc(Oc4ccc(C(F)(F)F)cc4)cc3)no2)cc1
result: 43700 ng·h/mL

###

System: S. aureus NRS119
Here the recorded MIC is given for each entry.
readout name: MIC (µg/mL)

molecule: Oc1ccc(-c2nc(-c3ccc(Oc4ccc(C(F)(F)F)cc4)cc3)no2)cc1
readout name: MIC
numeric value: 2
--
molecule: Nc1ccc(-c2nc(-c3ccc(Oc4ccc(C(F)(F)F)cc4)cc3)no2)cc1
readout name: MIC
numeric value: 2
--
molecule: Oc1ccc(-c2nc(-c3ccc(Oc4ccccc4)cc3)no2)cc1
readout name: MIC
numeric value: 2
--
molecule: CN[C@H](CC(C)C)C(=O)N[C@H]1C(=O)N[C@@H](CC(N)=O)C(=O)N[C@H]2C(=O)N[C@H]3C(=O)N[C@H](C(=O)N[C@H](C(=O)O)c4cc(O)cc(O)c4-c4cc3ccc4O)[C@H](O)c3ccc(c(Cl)c3)Oc3cc2cc(c3O[C@@H]2O[C@H](CO)[C@@H](O)[C@H](O)[C@H]2O[C@H]2C[C@](C)(N)[C@H](O)[C@H](C)O2)Oc2ccc(cc2Cl)[C@H]1O [vancomycin, reference compound]
readout name: MIC
numeric value: 2
--
molecule: CC(=O)NC[C@H]1CN(c2ccc(N3CCOCC3)c(F)c2)C(=O)O1 [linezolid, reference compound]
readout name: MIC
numeric value: 32

###

assay explanation: Pharmacokinetics in mice
Type: in vivo
run conditions: ICR, mouse, plasma, iv, 50 mg/kg

smiles str: Nc1ccc(-c2nc(-c3ccc(Oc4ccc(C(F)(F)F)cc4)cc3)no2)cc1
clearance, mL/min/kg: 5.4
--
smiles str: Oc1ccc(-c2nc(-c3ccc(Oc4ccccc4)cc3)no2)cc1
clearance, mL/min/kg: 36.2
